The reported measurements were obtained from paper PMC8185074.

# tested on: HDAC6 (Homo sapiens)
# Construct: purchased Reaction Biology Corporation (assay run by the CRO)
# Sequence (Q9UBN7 whole entry): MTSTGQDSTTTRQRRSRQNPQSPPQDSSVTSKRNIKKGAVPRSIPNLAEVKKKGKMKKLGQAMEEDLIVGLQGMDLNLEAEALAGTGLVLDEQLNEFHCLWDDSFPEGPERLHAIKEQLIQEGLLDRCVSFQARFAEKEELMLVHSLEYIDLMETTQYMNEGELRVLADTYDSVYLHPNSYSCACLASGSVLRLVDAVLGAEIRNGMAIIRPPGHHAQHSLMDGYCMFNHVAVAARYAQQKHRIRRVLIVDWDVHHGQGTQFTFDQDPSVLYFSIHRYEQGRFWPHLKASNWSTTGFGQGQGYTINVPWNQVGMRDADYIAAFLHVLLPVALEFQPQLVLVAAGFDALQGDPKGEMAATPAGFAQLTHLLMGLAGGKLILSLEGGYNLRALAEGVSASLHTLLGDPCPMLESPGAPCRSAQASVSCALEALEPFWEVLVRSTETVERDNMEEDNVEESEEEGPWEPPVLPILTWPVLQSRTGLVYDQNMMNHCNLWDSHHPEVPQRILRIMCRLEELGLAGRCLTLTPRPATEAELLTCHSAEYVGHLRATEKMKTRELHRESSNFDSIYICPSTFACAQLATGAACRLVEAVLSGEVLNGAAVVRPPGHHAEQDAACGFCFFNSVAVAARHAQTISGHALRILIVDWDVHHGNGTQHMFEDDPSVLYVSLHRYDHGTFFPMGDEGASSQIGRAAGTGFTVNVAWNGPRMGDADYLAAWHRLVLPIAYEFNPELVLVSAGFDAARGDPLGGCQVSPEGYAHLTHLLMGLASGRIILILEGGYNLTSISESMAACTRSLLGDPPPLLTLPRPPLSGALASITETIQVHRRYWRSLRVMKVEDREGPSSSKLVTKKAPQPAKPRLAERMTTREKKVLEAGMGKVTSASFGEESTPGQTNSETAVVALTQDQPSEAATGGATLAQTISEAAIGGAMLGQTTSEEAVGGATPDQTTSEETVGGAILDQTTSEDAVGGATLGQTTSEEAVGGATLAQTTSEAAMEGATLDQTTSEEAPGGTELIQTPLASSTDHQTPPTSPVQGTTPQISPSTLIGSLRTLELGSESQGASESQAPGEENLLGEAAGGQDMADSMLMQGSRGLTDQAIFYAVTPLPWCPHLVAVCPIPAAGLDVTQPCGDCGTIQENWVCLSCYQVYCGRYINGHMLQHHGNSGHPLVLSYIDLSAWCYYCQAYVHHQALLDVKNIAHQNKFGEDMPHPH
# experimental protocol: HDAC6 inhibition, full IC50 measurement (Reaction Biology; fluorogenic p53 peptide RHKK(Ac)AMC)
# Format: biochemical
# assay setup: Conc. 3.33E-06 M, t1
# Experimental: The assay was performed using 50 μM fluorogenic peptide from p53 residues 379-382 [RHKK(Ac)AMC] in a base reaction buffer of 50 mM Tris-HCl at pH 8.0, 137 mM NaCl, 2.7 mM KCl, 1 mM MgCl2, and freshly added 1 mg/ml BSA and 1% DMSO. […] Peptide concentrations were calculated based on mass of lyophilized peptide and its molecular weight. […]
Peptide text beside a SMILES is read from it.
measured metric: HDAC6 activity raw data (signal)
// response body must contain only the number

Lab note: CCCC[C@H]1NC(=O)[C@H](Cc2ccccc2)NC(=O)[C@H](CCCCCS)NC(=O)[C@@H](CCCNC(=N)N)NC(=O)[C@H](CC(=O)O)NC(=O)[C@@H](CO)NC(=O)[C@@H](C)NC(=O)[C@H](CCCCN)NC1=O [des4.3.1, SHA-Phe-dNle-Lys-dAla-dSer-Asp-dArg] (HELM PEPTIDE1{D.[dR].[O=C([C@H](CCCCCS)N[*:1])[*:2]].F.[CCCC[C@@H](N[*:1])C(=O)[*:2]].K.[dA].[dS]}$PEPTIDE1,PEPTIDE1,1:R1-8:R2$$$V2.0) gave HDAC6 activity raw data (signal) of 6046

HDAC6 activity raw data (signal) measured on N=C(N)NCCC[C@@H]1NC(=O)[C@H](Cc2c[nH]c3ccccc23)NC(=O)[C@H](CC(=O)O)NC(=O)[C@@H](CO)NC(=O)[C@H](Cc2c[nH]c3ccccc23)NC(=O)[C@H](CCCCCS)NC(=O)[C@H](CCC(N)=O)NC1=O [des4.1.0, SHA-Trp-dSer-Asp-Trp-Arg-Gln] (HELM PEPTIDE1{D.W.R.Q.[O=C([C@H](CCCCCS)N[*:1])[*:2]].W.[dS]}$PEPTIDE1,PEPTIDE1,1:R1-7:R2$$$V2.0) = 8242

###

What HDAC2 activity raw data (signal) was measured for each of the following?
# tested on: HDAC2 (Homo sapiens)
# Construct: purchased Reaction Biology Corporation (assay run by the CRO)
# Sequence (Q92769 whole entry): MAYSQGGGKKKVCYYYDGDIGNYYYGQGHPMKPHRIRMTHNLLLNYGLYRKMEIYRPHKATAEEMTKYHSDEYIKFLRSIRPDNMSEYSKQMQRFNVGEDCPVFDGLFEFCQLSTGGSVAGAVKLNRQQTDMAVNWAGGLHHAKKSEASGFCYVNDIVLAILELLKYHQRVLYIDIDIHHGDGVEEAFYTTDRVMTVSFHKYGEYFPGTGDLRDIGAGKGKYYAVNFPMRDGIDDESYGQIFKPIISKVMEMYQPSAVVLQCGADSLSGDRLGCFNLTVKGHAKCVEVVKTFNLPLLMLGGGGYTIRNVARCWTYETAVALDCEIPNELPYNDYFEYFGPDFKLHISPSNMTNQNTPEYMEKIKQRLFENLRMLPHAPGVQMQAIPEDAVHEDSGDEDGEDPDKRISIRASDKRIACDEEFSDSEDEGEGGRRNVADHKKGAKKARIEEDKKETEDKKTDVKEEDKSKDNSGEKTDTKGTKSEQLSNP
# experimental protocol: HDAC2 inhibition, full IC50 measurement (Reaction Biology; fluorogenic p53 peptide RHKK(Ac)AMC)
# Format: biochemical
# assay setup: Conc. 1.11E-06 M, t2
Peptide text beside a SMILES is read from it.
Could you respond with only the numeric value?

Recorded result, CCCC[C@H]1NC(=O)[C@H](Cc2ccccc2)NC(=O)[C@H](CCCCCS)NC(=O)[C@@H](CCCNC(=N)N)NC(=O)[C@H](CC(=O)O)NC(=O)[C@@H](CO)NC(=O)[C@@H](C)NC(=O)[C@H](CCCCN)NC1=O [des4.3.1, SHA-Phe-dNle-Lys-dAla-dSer-Asp-dArg] (HELM PEPTIDE1{D.[dR].[O=C([C@H](CCCCCS)N[*:1])[*:2]].F.[CCCC[C@@H](N[*:1])C(=O)[*:2]].K.[dA].[dS]}$PEPTIDE1,PEPTIDE1,1:R1-8:R2$$$V2.0) , HDAC2 activity raw data (signal): 678505

// recorded HDAC2 activity raw data (signal) for CCCC[C@H]1NC(=O)[C@H](Cc2ccccc2)NC(=O)[C@H](CCCCCS)NC(=O)[C@@H](CO)NC(=O)[C@H](CC(=O)O)NC(=O)[C@@H](CO)NC(=O)[C@@H](C)NC(=O)[C@H](CCCCN)NC1=O [des4.3.1.1, SHA-Phe-dNle-Lys-dAla-dSer-Asp-dSer] (HELM PEPTIDE1{D.[dS].[O=C([C@H](CCCCCS)N[*:1])[*:2]].F.[CCCC[C@@H](N[*:1])C(=O)[*:2]].K.[dA].[dS]}$PEPTIDE1,PEPTIDE1,1:R1-8:R2$$$V2.0) : 1799195

Value of HDAC2 activity raw data (signal) reported for the compound CSCC[C@H]1NC(=O)[C@@H](CO)NC(=O)[C@H](CC(N)=O)NC(=O)[C@H](CC(=O)O)NC(=O)[C@@H]([C@H](C)O)NC(=O)[C@H](Cc2c[nH]c3ccccc23)NC(=O)[C@H](CCCCCS)NC(=O)[C@H](CCCCN)NC(=O)[C@@H](CC(=O)O)NC1=O [des2.1.1, SHA-Trp-dThr-Asp-Asn-dSer-dMet-dAsp-Lys] (HELM PEPTIDE1{D.N.[dS].[dM].[dD].K.[O=C([C@H](CCCCCS)N[*:1])[*:2]].W.[dT]}$PEPTIDE1,PEPTIDE1,1:R1-9:R2$$$V2.0) is 38279

Consider N=C(N)NCCC[C@@H]1NC(=O)[C@H](Cc2c[nH]c3ccccc23)NC(=O)[C@H](CC(=O)O)NC(=O)[C@@H](CO)NC(=O)[C@H](Cc2c[nH]c3ccccc23)NC(=O)[C@H](CCCCCS)NC(=O)[C@H](CCC(N)=O)NC1=O [des4.1.0, SHA-Trp-dSer-Asp-Trp-Arg-Gln] (HELM PEPTIDE1{D.W.R.Q.[O=C([C@H](CCCCCS)N[*:1])[*:2]].W.[dS]}$PEPTIDE1,PEPTIDE1,1:R1-7:R2$$$V2.0) . Its measured HDAC2 activity raw data (signal) is 48499

The value of HDAC2 activity raw data (signal) measured for the compound CC(C)C[C@H]1NC(=O)[C@H](Cc2c[nH]c3ccccc23)NC(=O)[C@H](CCCCCS)NC(=O)[C@@H](Cc2ccc(O)cc2)NC(=O)[C@@H](C(C)C)NC(=O)[C@H](Cc2c[nH]cn2)NC(=O)CNC(=O)CNC(=O)[C@@H](CO)NC1=O [des2.2.0, SHA-Trp-dLeu-dSer-Gly-Gly-His-dVal-dTyr] (HELM PEPTIDE1{G.G.H.[dV].[dY].[O=C([C@H](CCCCCS)N[*:1])[*:2]].W.[dL].[dS]}$PEPTIDE1,PEPTIDE1,1:R1-9:R2$$$V2.0) turned out to be 1100762
